Values compiled from the supplement of paper PMC10567573.

B1: ZNF449 (parent)
chain: HTGERPYECTVCKKRFTRRSHLIG

- Variants of: B1
- Experiment notes: protein stability index of a GFP-peptide fusion (GPS, HEK-293T) (PSI 1-6); higher = more stable;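 further: lentivirally expressed fusions sorted by FACS into six bins by GFP to DsRed ratio, PSI derived from sequencing read proportions per bin multiplied by bin number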
- Particulars: c terminus: a fixed tail appended
Provide the reported protein stability index of each item.
API note: the answer field is a bare number with no unit suffix.

Exercise: Fill in the blank: the reported protein stability index of `V11E` is ____.
Solution: 3.06

Exercise: Fill in the blank: the reported protein stability index of `P6D` is ____.
Solution: 2.52

Exercise: Fill in the blank: the reported protein stability index of `V11G` is ____.
Solution: 2.99

Exercise: Fill in the blank: the reported protein stability index of `G24T` is ____.
Solution: 2.45

Exercise: Fill in the blank: the reported protein stability index of `T2F` is ____.
Solution: 2.08

Exercise: Fill in the blank: the reported protein stability index of `T17D` is ____.
Solution: 1.9

Exercise: Fill in the blank: the reported protein stability index of `G3I` is ____.
Solution: 2.39

Exercise: Fill in the blank: the reported protein stability index of `R18K` is ____.
Solution: 1.97

Exercise: Fill in the blank: the reported protein stability index of `T17G` is ____.
Solution: 1.82

Exercise: Fill in the blank: the reported protein stability index of `F16N` is ____.
Solution: 2.72

Exercise: Fill in the blank: the reported protein stability index of `K13R` is ____.
Solution: 2.31

Exercise: Fill in the blank: the reported protein stability index of `R19M` is ____.
Solution: 1.53

Exercise: Fill in the blank: the reported protein stability index of `E8L` is ____.
Solution: 2.77

Exercise: Fill in the blank: the reported protein stability index of `K14S` is ____.
Solution: 2.27

Exercise: Fill in the blank: the reported protein stability index of `C9A` is ____.
Solution: 3.85

Exercise: Fill in the blank: the reported protein stability index of `T2R` is ____.
Solution: 2.12

Exercise: Fill in the blank: the reported protein stability index of `G3Y` is ____.
Solution: 1.9

Exercise: Fill in the blank: the reported protein stability index of `V11F` is ____.
Solution: 1.47

Exercise: Fill in the blank: the reported protein stability index of `R5I` is ____.
Solution: 2.19

Exercise: Fill in the blank: the reported protein stability index of `C9H` is ____.
Solution: 3.03

Exercise: Fill in the blank: the reported protein stability index of `P6V` is ____.
Solution: 3.36

Exercise: Fill in the blank: the reported protein stability index of `G3F` is ____.
Solution: 2.06

Exercise: Fill in the blank: the reported protein stability index of `P6T` is ____.
Solution: 2.58

Exercise: Fill in the blank: the reported protein stability index of `T10W` is ____.
Solution: 1.3

Exercise: Fill in the blank: the reported protein stability index of `T10F` is ____.
Solution: 2.88

Exercise: Fill in the blank: the reported protein stability index of `G3T` is ____.
Solution: 2.12

Exercise: Fill in the blank: the reported protein stability index of `K13V` is ____.
Solution: 3.25

Exercise: Fill in the blank: the reported protein stability index of `R18F` is ____.
Solution: 2.18

Exercise: Fill in the blank: the reported protein stability index of `R19W` is ____.
Solution: 2.52

Exercise: Fill in the blank: the reported protein stability index of `E8D` is ____.
Solution: 2.72

Exercise: Fill in the blank: the reported protein stability index of `E4D` is ____.
Solution: 1.82

Exercise: Fill in the blank: the reported protein stability index of `I23Y` is ____.
Solution: 2.42

Exercise: Fill in the blank: the reported protein stability index of `C9V` is ____.
Solution: 3.01

Exercise: Fill in the blank: the reported protein stability index of `Y7S` is ____.
Solution: 2.28

Exercise: Fill in the blank: the reported protein stability index of `T2D` is ____.
Solution: 2.23

Exercise: Fill in the blank: the reported protein stability index of `T10P` is ____.
Solution: 1.82

Exercise: Fill in the blank: the reported protein stability index of `Y7E` is ____.
Solution: 2.88

Exercise: Fill in the blank: the reported protein stability index of `T10C` is ____.
Solution: 2.54
